# maps each entry to its melting point

# example entries with known answers
{"columns": ["molecule", "melting point"],
 "data": [
  ["Cc1ccc(C(=O)NC(=O)Nc2cc3c(cc2F)/C(=C/c2[nH]c(C)c(CCC(=O)O)c2C)C(=O)N3)cc1", "265 to 270 °C"],
  ["O=C1CC(c2ccccc2Cl)=Nc2c1cccc2C(=O)OCCO", "170 to 171 °C"]
]}

# input Please list melting point recorded for the molecule OCCN1CCN(c2ccccn2)CC1
# output 82.5 to 84 °C

# input // Input: CN1C(=O)C(c2ccc(OC(F)F)cc2)(c2cccc(OC(F)F)c2)N=C1N (stereo not given) . Output its melting point only.
# output 52 to 54 °C

# input Tell me its melting point given CN(C)CCNc1ccc(NC(=O)Nc2ccc(Oc3ccccc3)cc2)cc1[N+](=O)[O-] as the entry.
# output 178 to 180 °C

# input Return the recorded melting point value; entry: COc1c(Cl)ccc(-c2cc(N)c(Cl)c(C(=O)NOC/C=C/Cl)n2)c1F
# output 163 to 165 °C

# input Indicate its recorded melting point; the molecule in question is Oc1cc2cc(-c3ccccc3)sc2c(Cl)c1Cl
# output 122 to 124 °C

# input Complete the entry with melting point for COc1ccc2c(c1)-c1nn(CCO)c3cccc(c13)N2
# output 275 to 276 °C

# input Return reported melting point. Input molecule: CC(C)NC(=O)CSCC(=O)c1ccc(-c2ccccc2)cc1
# output 120 to 121 °C

# input Read off the recorded melting point for O=C=Nc1c(Cl)c(Cl)cc(Cl)c1Cl
# output 62.5 to 63.5 °C
